Experiment: Plasma and Brain Levels after oral dosing
Format: in vivo
Details: male, mouse, plasma, oral, 1 mg/kg, 1 mg/kg oral, fed, read-out: Plasma con.
MEASURED ENDPOINT: concentration at 1.5 h (nM)
The figure you give is taken to be in nM; do not add the unit.

In: Quick one: concentration at 1.5 h of `C[C@H]1c2cccc(-c3cnn(C)c3)c2C[C@H](CO)N1C(=O)Cc1c(Cl)cccc1Cl` ?
Out: 6.74

---

Assay: Plasma and Brain Levels after oral dosing
Format: in vivo
Conditions: male, mouse, plasma, oral, 60 mg/kg, 60 mg/kg oral, fed, 1.5 hr, read-out: Plasma con.
MEASURED ENDPOINT: concentration at 1 h (µM)
Provide the reading as a plain figure in µM.

In: What value of concentration at 1 h has been reported for the following compound? `C[C@H]1c2cccc(-c3cn[nH]c3)c2C[C@H](CO)N1C(=O)Cc1c(Cl)cccc1Cl`
Out: 20.1

These entries and their values trace back to patent US10611751B2.
